Provide the recorded Population Pyknosed Nuclei (%) for the entries that follow.
- System: U2OS
- assay.explanation: Multiplex assay against U2OS
- Assay type: toxicity, cell-based
- condition.set: human, 24 h, 1 µM, compound concentration 1 uM, replicate 1
Numbers only, in %.

>>> result_value("C[C@H](NC(=O)CNC(=O)c1cccc(Cl)c1)c1ccccc1")
8
>>> result_value("CN1CCN(c2ccc(Nc3c4ccccc4nc4ccccc34)cc2)CC1.Cl.Cl.O")
6
>>> result_value("CSc1nc(NC2CCCC2)c([N+](=O)[O-])c(NC2CCCC2)n1")
12
>>> result_value("COC(c1ccccc1)(c1ccccc1)[C@H](Oc1nc(C)cc(C)n1)C(=O)O")
8
>>> result_value("COc1ccc2[nH]c(I)c(CCNC(C)=O)c2c1")
8

Could you report Population Pyknosed Nuclei (%) for every entry in the following list?
1. COc1ccc2c(c1OCc1ccccc1)C[C@@H](C(=O)O)N(C(=O)C(c1ccccc1)c1ccccc1)C2
2. S=C(NCCCc1c[nH]cn1)NCCCN(Cc1ccc(Cl)c(Cl)c1)c1ccc(Br)cn1

Reply text:
10
8

====

- System: HEK-293T
- assay.explanation: Multiplex assay against HEK293T
- Assay type: toxicity, cell-based
- condition.set: human, 12 h, 1 µM, compound concentration 1 uM, replicate 1
// label = yes if Population Fragmented Nuclei (%) is not less than 8%, otherwise no

Worked set:
>>> group_label("COc1cc(Nc2ncc3c(n2)-c2ccc(Cl)cc2C(c2c(F)cccc2OC)=NC3)ccc1C(=O)O")
"no"
>>> group_label("CC(C)C[C@H](CO)Nc1nc(S[C@@H](C)c2ccccc2)nc2nc(N)sc12")
"no"
>>> group_label("O=C(O)CCC/C=C\\CC1C(O)CC(O)C1/C=C/C(O)COc1cccc(Cl)c1 (configuration not stated)")
"no"
>>> group_label("C=CCN1C[C@H](C(=O)N(CCCN(C)C)C(=O)NCC)C[C@@H]2c3cccc4[nH]cc(c34)C[C@H]21")
"no"
>>> group_label("Cl.Cl.OCCOCCN1CCN(C(c2ccccc2)c2ccc(Cl)cc2)CC1 (configuration not stated) [HYDROXYZINE HYDROCHLORIDE]")
"no"

Let's switch to this compound now.
Inquiry: Please indicate if the recorded Population Fragmented Nuclei (%) for `OCCCNc1cc(-c2ccnc(Nc3cccc(Cl)c3)n2)ccn1` meets or exceeds 8%.
Reply text: yes

====

Kindly state Population Normal (%) for each of the entries shown.
- Tested on: Fibroblast
- assay.explanation: Multiplex assay against human fibroblast
- Type: toxicity, cell-based
- condition.set: 48 h, 1 µM, compound concentration 1 uM, replicate 2
Non-standard residues stand in square brackets, D forms with d. Residues, ends and D or L forms follow the SMILES beside them.
Answers are plain numbers, in %.

// below: answered compounds
>>> result_value("Cc1ccc(OCC(O)C(C)NC(C)C)c2c1CCC2.Cl (centres undefined)")
88
>>> result_value("C[C@@H]1CC(=O)Nc2cccc(-c3ccc4c(c3)c(-c3cnn(C)c3)nn4C)c2N1")
97

Please state Population Normal (%) for every compound in the list that follows.
1. S=C(NCCCc1c[nH]cn1)NCCCN(Cc1ccc(Cl)c(Cl)c1)c1ccc(Br)cn1
2. COc1cc(C(=O)N2CC[C@@H](O)[C@@H](N)C2)cc2nc(-c3cc4ccccc4n3CC3CC3)n(C)c12.Cl
3. Cc1cc(NC(=O)NCCN2CCC(O)(Cc3ccccc3)CC2)c2ccccc2n1
4. Cl.Cl.OCCOCCN1CCN(C(c2ccccc2)c2ccc(Cl)cc2)CC1 (centres undefined) [HYDROXYZINE HYDROCHLORIDE]
5. COCCn1c(C)c(C)s/c1=N\C(=O)C1C(C)(C)C1(C)C
6. CCC(=O)OCC(=O)[C@@]1(OC(=O)CC)[C@@H](C)C[C@H]2[C@@H]3CCC4=CC(=O)C=C[C@]4(C)[C@@]3(Cl)[C@@H](O)C[C@@]21C [BECLOMETHASONE DIPROPIONATE]
7. CCn1c(-c2nc3cc(C(=O)N4CCCC(N)C4)ccc3n2C)cc2ccccc21.Cl (centres undefined)

Reply text:
[95, 98, 92, 96, 92, 92, 94]

Hey, can you go through the list below and give me Population Normal (%) for every item?
1. CN1CCN2c3ccccc3Cc3ccccc3C2C1.Cl (centres undefined) [MIANSERIN HYDROCHLORIDE]
2. O=c1nc2[nH]c3ccccc3nc-2c(=O)[nH]1
3. Cc1cc(O)c(-c2ccc([C@@H](C)CN(C)C)cc2)c2c1[nH]c(=O)c1sccc12

Reply text:
96
96
90

Give measured Population Normal (%) for every item shown.
1. COc1ccc2c(c1OCc1ccccc1)C[C@@H](C(=O)O)N(C(=O)C(c1ccccc1)c1ccccc1)C2
2. CC(C)C[C@@H]1NC(=O)[C@@H](C(C)C)NC(=O)[C@@H]2CCCN2C(=O)[C@@H](CC(=O)O)NC(=O)[C@@H](Cc2c[nH]c3ccccc23)NC1=O [BQ-123] (cyclo(L[dW][dD]P[dV]))
3. COCCCN1CCC(NC(=O)c2cc(Cl)c(N)c3c2OCC3)CC1 [PRUCALOPRIDE]
4. Cc1nn(C)c2nc(NNC(=O)Nc3cc(Cl)nc(Cl)c3)cc(C(C)C)c12

Reply text:
[98, 95, 97, 97]

Field: Population Normal (%). Fill in for each record below.
1. CC(C)(C)c1ccc(CSc2cnn(C(C)(C)C)c(=O)c2Cl)cc1
2. O=C(O)CCC/C=C\CC1C(O)CC(O)C1/C=C/C(O)COc1cccc(Cl)c1 (centres undefined)

Reply text:
1: 95; 2: 96

====

- Test system: Fibroblast
- assay.explanation: Multiplex assay against human fibroblast
- Assay type: toxicity, cell-based
- condition.set: 24 h, 1 µM, compound concentration 1 uM, replicate 1
Kindly supply the reported Population Healthy Nuclei (%) values for the records listed here.
Give bare numbers, in %.

Here's what some known entries look like.
>>> result_value("O=c1ccc2ccc(OCCCCN3CCN(c4cccc5sccc45)CC3)cc2[nH]1")
69
>>> result_value("Cc1cc(-c2ccc3c(c2)CC[C@H]3N2CC3(CCN(C(=O)Cc4cn5cc(C)sc5n4)CC3)C2)ncn1")
72
>>> result_value("CCc1nn2c(C)cc(C)nc2c1Cc1ccc(-c2nnc(C3CCNCC3)o2)cc1")
68

Parameters: items (list). Returns: Population Healthy Nuclei (%) for each item.
1. CC(C)C[C@H](CO)Nc1nc(S[C@@H](C)c2ccccc2)nc2nc(N)sc12
2. COCCn1c(C)c(C)s/c1=N\C(=O)C1C(C)(C)C1(C)C
3. COc1cc(Nc2ncc3c(n2)-c2ccc(Cl)cc2C(c2c(F)cccc2OC)=NC3)ccc1C(=O)O

Reply text:
69
72
69

Inquiry: Any idea what Population Healthy Nuclei (%) was measured for `Cc1nn(C)c2nc(NNC(=O)Nc3cc(Cl)nc(Cl)c3)cc(C(C)C)c12` ?
Reply text: 68

====

Please go through the items and note down their Population Apoptotic (%).
- System: U2OS
- assay.explanation: Multiplex assay against U2OS
- Format: toxicity, cell-based
- condition.set: human, 48 h, 1 µM, compound concentration 1 uM, replicate 1
One number for each entry, in %.

>>> result_value("Cc1nn(C)c2nc(NNC(=O)Nc3cc(Cl)nc(Cl)c3)cc(C(C)C)c12")
88

Hi! Can you tell me Population Apoptotic (%) for each of these molecules?
1. CSc1nc(NC2CCCC2)c([N+](=O)[O-])c(NC2CCCC2)n1
2. Cl.Cl.OCCOCCN1CCN(C(c2ccccc2)c2ccc(Cl)cc2)CC1 (configuration not stated) [HYDROXYZINE HYDROCHLORIDE]
3. N[C@](CC1c2ccccc2Oc2ccccc21)(C(=O)O)[C@H]1C[C@@H]1C(=O)O
4. CCc1nn2c(C)cc(C)nc2c1Cc1ccc(-c2nnc(C3CCNCC3)o2)cc1
5. O=C(Nc1cc(-c2ccccc2)nn1-c1ccccc1F)c1ccc([N+](=O)[O-])cc1
6. Cn1cc(C(=O)OCC2CCN(CCNS(C)(=O)=O)CC2)c2ccccc21

Reply text:
1. 88
2. 89
3. 89
4. 90
5. 89
6. 91

====

- System: Fibroblast
- assay.explanation: Multiplex assay against human fibroblast
- Assay type: toxicity, cell-based
- condition.set: 12 h, 1 µM, compound concentration 1 uM, replicate 2
For each of the compounds below, state its Population Normal (%).
Numbers only, in %.

>>> result_value("Cc1cc(=O)n(C)c2cc(N3C(=O)CC[C@H](NS(=O)(=O)CC(C)C)[C@H]3c3ccc(Cl)cc3)ccc12")
89
>>> result_value("Nc1nc(-c2ccco2)c2cnn(Cc3ccccc3F)c2n1")
93
>>> result_value("CC(C)(C)c1ccc(CSc2cnn(C(C)(C)C)c(=O)c2Cl)cc1")
95

Query compound follows.
Inquiry: Look at this compound and give its reported Population Normal (%). `CC(C)(O)C(=O)N1CCN(c2ccc(C(F)(F)F)c(C3=C(c4c[nH]c5ccccc45)C(=O)NC3=O)c2)CC1`
Reply text: 94
